The following molecules are listed with their measured Vd values.
- Test description: Volume of distribution in Sprague-Dawley rat at 1 mg/kg, iv
- Format: ADME, organism-based
- Parameters: dose 1 mg/kg, route intravenous
- Settings: in vivo
Reply numerically in L/kg, unit not repeated.

C[C@H](COc1ccc(-c2cn[nH]c(=O)c2)cc1)CN1CCC[C@H]1C	3.9

Kindly consider the entry below.
Sample COCn1ncc(-c2ccc(OCCCN3CCC[C@H]3C)cc2)cc1=O — what was its Vd?
3.2

----------
- Test description: Plasma protein binding in human at 5 uM after 1 hr by LC-MS/MS analysis
- Format: ADME, cell-free
- Settings: read-out: PPB (converted)
Measure name: fraction unbound at 1 h, 5 µM
Reply briefly: the number, and no unit.

Please give the measured fraction unbound at 1 h, 5 µM for this compound: C[C@@H]1CCCN1CCCOc1ccc(-c2cn[nH]c(=O)c2)cc1
0.8

src = ChEMBL document CHEMBL2034817
